System: voltage-gated Na+ channels
TEST: Sodium (Na+) channel analysis in rat DRG neurons using whole cell patch-clamp
Type: cell-based
EXPERIMENTAL_CONDITIONS: Na+ currents, rat DRG neurons, whole-cell patch clamp, 3 min in presence of drug; read-out: IC50
pIC50: −log10 of the molar value.

{"COMPOUND": "CC(C)=CCCC1(C)CC1COCc1ccccc1Br (stereo not drawn)", "pIC50": "> 2.00"}
{"COMPOUND": "CC(C)=CCCC1(c2ccccc2)CC1CO (stereo not drawn)", "pIC50": "2.30 to 3.00"}
{"COMPOUND": "CC(C)=CCCC1(C)CC1COCc1ccccc1 (stereo not drawn)", "pIC50": "> 2.00"}
{"COMPOUND": "CC(C)=CCCC1(C)CC1CO (stereo not drawn)", "pIC50": "3.00 to 4.00"}
{"COMPOUND": "CC(C)=CCCC1(C)CC1COCc1ccccc1Cl (stereo not drawn)", "pIC50": "> 2.00"}
{"COMPOUND": "COCC1CC1(C)CCC=C(C)C (stereo not drawn)", "pIC50": "2.00 to 2.30"}
